# target.desc: human somatostatin receptor subtype 2 (human, UniProt P30874 1-369)
# Construct: whole, on cells; also called SSTR2; SSTR-2
# Sequence (P30874 whole entry): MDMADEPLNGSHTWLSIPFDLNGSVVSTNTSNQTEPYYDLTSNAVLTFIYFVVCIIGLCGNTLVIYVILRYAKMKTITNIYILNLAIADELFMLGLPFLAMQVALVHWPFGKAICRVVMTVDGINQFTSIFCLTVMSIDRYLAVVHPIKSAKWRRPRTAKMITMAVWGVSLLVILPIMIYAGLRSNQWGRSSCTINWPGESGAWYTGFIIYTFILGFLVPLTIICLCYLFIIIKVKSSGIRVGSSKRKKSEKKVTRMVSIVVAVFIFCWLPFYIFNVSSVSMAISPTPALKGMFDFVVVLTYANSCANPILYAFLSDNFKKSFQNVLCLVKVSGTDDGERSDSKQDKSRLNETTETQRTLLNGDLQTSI
# assay.name: radioligand displacement, CHO-K1 membranes expressing human SSTR2; competitor [125I]MK-678
# Description: Specificity and selectivity of the analogues were determined by Radioligand Binding Assay on CHO-K1 cells stably transfected with each of the SSTR subtypes, as follows. Membranes for in vitro receptor binding assays were obtained by homogenizing the CHO-K1 cells expressing the SSTR's subtypes in ice-cold 50 mM Tris-HCl and centrifuging twice at 39000 g (10 min), with an intermediate resuspension in fresh buffer. The final pellets were resuspended in 10 mM Tris-HCl for assay. […]
measured.quantity: IC50

Data request: Which IC50 is reported for this substance? Compound 3: 4-(2-Hydroxyethyl)-1-piperazinylacetyl-D-Phe-cyclo(Cys-Tyr-D-Trp-Lys-Abu-Cys)-Thr-NH2 (peptide)
Data returned: 0.35 nM

Data request: Here is the next substance: Compound 2: cyclo[Tic-Tyr-D-Trp-Lys-Abu-Phe] (peptide)
Data returned: 0.34 nM

Data request: Here is the next substance: Compound 6: Cpa-cyclo(D-Cys-4-Pal-D-Trp-Lys-Thr-Cys)-Nal-NH2 (peptide)
Data returned: 6.4 nM
